test: in vitro
protocol.conditions: human, hek293t cells
Simple rule here: viability at 48 h, 25 µM less than 80% is class 1, otherwise class 0.

>  <compound>
CC(Cl)C(=O)NCc1cc(C(F)F)nn1C (centres unmarked)

>  <class.label>
class 0

$$$$
>  <compound>
COC(=O)c1c(C)[nH]c(C(=O)C(C)Cl)c1C (centres unmarked)

>  <class.label>
class 0

$$$$
>  <compound>
C=CC(=O)N1CCC(C(=O)NCCc2cc[nH]n2)CC1

>  <class.label>
class 1

$$$$
>  <compound>
Cc1cc(CN(Cc2cnn(C)c2)C(=O)CCl)ccc1Cl

>  <class.label>
class 1

$$$$
>  <compound>
Cc1nn(C)c(C)c1C=C(C#N)C(=O)Nc1ccccc1Cl

>  <class.label>
class 0

$$$$
>  <compound>
C=CC(=O)N(Cc1cc2ccccn2n1)CC1(O)CCCCC1

>  <class.label>
class 0

$$$$
>  <compound>
CC(NC(=O)C(C#N)=Cc1cnn(C)c1)c1ccccc1 (centres unmarked)

>  <class.label>
class 0

$$$$
>  <compound>
CC(c1cccc(NC(=O)c2ccccc2)c1)N(C)C(=O)CCl (centres unmarked)

>  <class.label>
class 1

$$$$
>  <compound>
N#CC(=Cc1ccco1)C(=O)NCCc1ccc(F)cc1F

>  <class.label>
class 0

$$$$
>  <compound>
Cn1cc(CN(C(=O)CCl)c2ccc(F)cc2)cn1

>  <class.label>
class 1

$$$$

###

As shown below, each of these compounds has a reported viability at 48 h, 25 µM value.
test: in vitro
protocol.conditions: human, hek293t cells

>  <compound>
CC(Cl)C(=O)NC1COc2ccc(F)cc21 (stereo not drawn) [7-A17]

>  <unit>
%

>  <viability at 48 h, 25 µM>
74

$$$$
>  <compound>
Cc1ccc(NC(=O)CCl)cc1[N+](=O)[O-] [4-M13]

>  <unit>
%

>  <viability at 48 h, 25 µM>
59.2

$$$$
>  <compound>
C=CC(=O)N1CCC(C(=O)NC(C)c2cccc(C(F)(F)F)c2)CC1 (stereo not drawn) [3-G13]

>  <unit>
%

>  <viability at 48 h, 25 µM>
40.6

$$$$
>  <compound>
O=C(CN(CC1CCCO1)C(=O)CCl)N1CCCC1 (stereo not drawn) [7-D18]

>  <unit>
%

>  <viability at 48 h, 25 µM>
99.8

$$$$
>  <compound>
C=CC(=O)N(CC)CC(=O)N1CCCC(F)(F)C1 [2-G14]

>  <unit>
%

>  <viability at 48 h, 25 µM>
97.5

$$$$
>  <compound>
CCC(C)c1ccccc1NC(=O)C(C)Cl (stereo not drawn) [4-O10]

>  <unit>
%

>  <viability at 48 h, 25 µM>
85.1

$$$$
>  <compound>
C=CC(=O)NC1(Cc2ccccc2)CC1 [3-P13, N-(1-benzylcyclopropyl)prop-2-enamide]

>  <unit>
%

>  <viability at 48 h, 25 µM>
61.5

$$$$
>  <compound>
CCOc1ccccc1NC(=O)C(C)Cl (stereo not drawn) [6-M10, 2-chloro-N-(2-ethoxyphenyl)propanamide]

>  <unit>
%

>  <viability at 48 h, 25 µM>
93.2

$$$$
>  <compound>
CC1=C(C#N)C(=O)N(C)C(=O)C1=Cc1ccc(-c2ccc(F)cc2)o1 [9-I18]

>  <unit>
%

>  <viability at 48 h, 25 µM>
125

$$$$
>  <compound>
C=CCNC(=O)C(C#N)=Cc1ccc(-c2ccc(F)cc2)s1 [9-C12]

>  <unit>
%

>  <viability at 48 h, 25 µM>
111

$$$$
>  <compound>
C=CC(=O)N(C)CC(=O)N1CCC(c2nc(-c3ccccc3)n[nH]2)CC1 [2-H20]

>  <unit>
%

>  <viability at 48 h, 25 µM>
67.6

$$$$
>  <compound>
CCOc1ccc(C=C(C#N)C(=O)Nc2ccncc2)cc1 [8-I22]

>  <unit>
%

>  <viability at 48 h, 25 µM>
99.3

$$$$
>  <compound>
Cc1c(C#N)c(NC(=O)CCl)n(C2CCCCC2)c1C [4-N18]

>  <unit>
%

>  <viability at 48 h, 25 µM>
0.0875

$$$$
>  <compound>
N#CC(=Cc1sc2ccccc2c1Cl)C(=O)NC1CC1 [9-C18]

>  <unit>
%

>  <viability at 48 h, 25 µM>
86.4

$$$$
>  <compound>
C=CC(=O)N(Cc1ccc2cnn(C)c2c1)CC(C)(C)C [2-O05]

>  <unit>
%

>  <viability at 48 h, 25 µM>
102

$$$$
>  <compound>
C=CC(=O)N1CCCC(NS(=O)(=O)c2cccc(F)c2)C1 (stereo not drawn) [3-G15]

>  <unit>
%

>  <viability at 48 h, 25 µM>
58

$$$$
>  <compound>
Cc1ccc(C=C(C#N)C(=O)Nc2c(Cl)cccc2Cl)o1 [9-N21]

>  <unit>
%

>  <viability at 48 h, 25 µM>
108

$$$$
>  <compound>
Cc1nnnn1-c1ccc(F)c(NC(=O)CCl)c1 [6-E13]

>  <unit>
%

>  <viability at 48 h, 25 µM>
1.24

$$$$
>  <compound>
C=CC(=O)N1CCC(C(=O)NCc2ccoc2C)CC1 [1-E14]

>  <unit>
%

>  <viability at 48 h, 25 µM>
85.4

$$$$
>  <compound>
CC(Cl)C(=O)NCc1nnnn1CC1CC1 (stereo not drawn) [6-F14]

>  <unit>
%

>  <viability at 48 h, 25 µM>
115

$$$$
>  <compound>
CC(Cl)C(=O)NC1CCN(S(=O)(=O)c2cnn(C)c2)CC1 (stereo not drawn) [7-O05]

>  <unit>
%

>  <viability at 48 h, 25 µM>
113

$$$$
